# credit: patent US20100120762A1

target: PDE2A (NM002599) (Homo sapiens, UniProt O00408); construct: made in house; host or cells: baculovirus / SF21 insect cells; experiment: Inhibition of recombinant PDE2A (expressed in baculovirus/SF21-cells); type: biochemical; conditions: recombinant PDE2A, 0.5 μM [3H]-cAMP, 1000 nM cGMP, 37° C., 30 minutes, SPA; read-out: PDE2A IC50
Sequence (O00408 whole entry): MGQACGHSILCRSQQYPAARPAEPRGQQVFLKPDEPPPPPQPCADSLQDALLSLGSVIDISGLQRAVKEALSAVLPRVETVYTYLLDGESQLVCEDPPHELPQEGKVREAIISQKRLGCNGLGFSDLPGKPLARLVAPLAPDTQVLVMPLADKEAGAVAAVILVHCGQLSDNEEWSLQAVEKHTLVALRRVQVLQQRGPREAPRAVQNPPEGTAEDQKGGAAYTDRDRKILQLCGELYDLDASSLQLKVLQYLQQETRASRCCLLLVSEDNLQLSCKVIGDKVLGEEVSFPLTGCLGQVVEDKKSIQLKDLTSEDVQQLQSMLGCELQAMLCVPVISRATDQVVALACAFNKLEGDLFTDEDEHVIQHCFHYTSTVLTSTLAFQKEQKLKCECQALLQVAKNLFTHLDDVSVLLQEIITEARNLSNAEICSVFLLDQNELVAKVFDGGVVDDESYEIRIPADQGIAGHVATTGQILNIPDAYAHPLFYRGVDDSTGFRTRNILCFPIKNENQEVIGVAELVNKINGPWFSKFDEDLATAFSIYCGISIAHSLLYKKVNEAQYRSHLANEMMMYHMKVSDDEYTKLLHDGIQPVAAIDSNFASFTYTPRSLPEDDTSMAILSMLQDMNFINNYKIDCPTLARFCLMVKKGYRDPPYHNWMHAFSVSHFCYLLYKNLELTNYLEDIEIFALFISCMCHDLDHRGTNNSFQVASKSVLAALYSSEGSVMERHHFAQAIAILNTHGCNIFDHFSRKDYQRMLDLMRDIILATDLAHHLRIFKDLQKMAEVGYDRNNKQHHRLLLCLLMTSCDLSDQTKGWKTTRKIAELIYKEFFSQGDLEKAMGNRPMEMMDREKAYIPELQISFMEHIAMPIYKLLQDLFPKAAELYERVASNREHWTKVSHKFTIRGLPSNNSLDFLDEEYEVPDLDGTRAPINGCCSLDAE
pIC50: −log10 of the molar value.
Lab note: compare pIC50 against 7. Equal or greater, write met. Smaller, write not met.

# count of solved cases: 3
>>> df
                        structure_as_smiles  label_class
0  COc1ccc2nnc3c(C)nc(-c4ccc(C(N)=O)c(Cl)c4)n3c2n1      not met
1  COc1ccc(Cl)c(-c2nc(C)c3nnc4ccc(OC)nc4n23)c1          met
2  COc1ccc(C)c(-c2nc(C)c3nnc4ccc(OC)nc4n23)c1          met

stdin: Threshold query (pIC50 >= 7) on COc1ccc2nnc3c(C)nc(-c4ccc(Cl)c(Cl)c4)n3c2n1
stdout: not met

stdin: Threshold query (pIC50 >= 7) on COc1ccc2nnc3c(C)nc(-c4cccnc4C)n3c2n1
stdout: met

====

ENDPOINT: melting point

Here are 4 molecules together with their reported answers.
In [3]: df
Out[3]:
                                   molecule  experimental_result
0  c1ccc(-c2ncn3c2nnc2cccnc23)cc1 [Example 125]        225 to 227 °C
1  CCC(C)c1nc(C)c2nnc3ccc(OC)nc3n12 (centres unmarked) [Example 12]        157 to 159 °C
2  COc1ccc2nnc3c(C4CC4)nc(-c4ccccn4)n3c2n1 [Example 122]        162 to 164 °C
3  COc1ccc2nnc3c(C4CC4)nc(-c4cccc(Cl)c4)n3c2n1 [Example 121]               155 °C

// switching to the query molecule
stdin: If you can, please state the reported melting point value of Cc1nc(-c2ccccc2Cl)n2c1nnc1ccc(N3CCOCC3)nc12 [Example 123] .
stdout: 251 to 254 °C

====

target: PDE10A1 (AB 020593) (Homo sapiens); construct: made in house; host or cells: baculovirus / SF21 insect cells (gene synthesized by Entelechon GmbH); test: Inhibition of recombinant PDE10A (baculovirus/SF21 system); format: biochemical
ENDPOINT: pIC50
Just the number, please; pIC50 means minus log10 of the concentration in mol/L.

stdin: If you can, please state the reported pIC50 value of COc1ccc2nnc3c(C)nc(-c4ccc5[nH]ccc5c4)n3c2n1 .
stdout: 7.20

====

ENDPOINT: melting point

Here are 2 compounds together with their reported answers.
>>> print(df.to_string())
                                   compound  experimental_result
0  COc1ccc2nnc3c(C)nc(C4CCCCC4)n3c2n1 [Example 11]        174 to 177 °C
1  CCc1nc(C)c2nnc3ccc(OC)nc3n12 [Example 2]        202 to 203 °C

// switching to the query compound
stdin: If you can, please state the reported melting point value of COc1ccc2nnc3c(C)ncn3c2n1 [Example 5] .
stdout: 213 to 214 °C

====

target: PDE10A1 (AB 020593) (Homo sapiens, UniProt Q9Y233); construct: made in house; host or cells: baculovirus / SF21 insect cells (gene synthesized by Entelechon GmbH); experiment: Inhibition of recombinant PDE10A (baculovirus/SF21 system); type: biochemical; settings: recombinant cytosolic PDE10A, 0.1 μM [3H]-cAMP, 37° C., 30 minutes, SPA; read-out: PDE10A IC50
Sequence (Q9Y233 other isoform, or with tags, fused parts or gaps): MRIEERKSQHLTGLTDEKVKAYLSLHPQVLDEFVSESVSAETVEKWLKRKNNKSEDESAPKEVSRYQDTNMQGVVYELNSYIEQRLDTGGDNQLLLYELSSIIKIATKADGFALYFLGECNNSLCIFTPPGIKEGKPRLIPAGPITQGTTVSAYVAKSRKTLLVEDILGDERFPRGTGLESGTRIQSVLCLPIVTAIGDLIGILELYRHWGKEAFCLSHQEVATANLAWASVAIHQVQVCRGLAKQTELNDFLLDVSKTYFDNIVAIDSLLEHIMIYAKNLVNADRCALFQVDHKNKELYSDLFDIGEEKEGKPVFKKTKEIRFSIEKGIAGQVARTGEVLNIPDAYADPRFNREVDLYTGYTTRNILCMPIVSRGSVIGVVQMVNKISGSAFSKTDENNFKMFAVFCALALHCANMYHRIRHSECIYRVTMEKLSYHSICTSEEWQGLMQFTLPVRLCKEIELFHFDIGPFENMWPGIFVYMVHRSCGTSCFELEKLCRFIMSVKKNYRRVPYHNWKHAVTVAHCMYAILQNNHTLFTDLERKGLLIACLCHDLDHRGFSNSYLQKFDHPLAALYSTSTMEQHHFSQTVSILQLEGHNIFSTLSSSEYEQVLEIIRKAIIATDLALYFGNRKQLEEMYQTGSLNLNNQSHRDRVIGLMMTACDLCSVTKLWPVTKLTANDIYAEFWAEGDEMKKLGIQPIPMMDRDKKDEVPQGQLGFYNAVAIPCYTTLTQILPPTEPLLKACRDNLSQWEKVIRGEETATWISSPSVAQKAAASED
ENDPOINT: pIC50
Just the number, please; pIC50 means minus log10 of the concentration in mol/L.

                   structure_as_smiles  experimental_result
0  COc1ccc2nnc3c(C)nc(-c4cncnc4)n3c2n1                 5.23

stdin: So what pIC50 did Cc1nc(-c2ccccc2Cl)n2c1nnc1ccc(N3CCOCC3)nc12 get with PDE10A1 (AB 020593) (Homo sapiens, UniProt Q9Y233)?
stdout: 7.80

stdin: So what pIC50 did COc1ccc2nnc3c(C4CC4)nc(-c4ccccn4)n3c2n1 get with PDE10A1 (AB 020593) (Homo sapiens, UniProt Q9Y233)?
stdout: 5.09

stdin: So what pIC50 did COc1ccc2nnc3c(C)nc(-c4c(C)nn(C)c4C)n3c2n1 get with PDE10A1 (AB 020593) (Homo sapiens, UniProt Q9Y233)?
stdout: 6.92
